Entries and their IC50 values follow.
Target: Phospho-EGFR (Tyr1068) in H1975 C797S cells (Homo sapiens, UniProt P00533, C797S/L858R/T790M)
Construct: endogenous in cells
Sequence (P00533 25-1210 T790M/C797S/L858R): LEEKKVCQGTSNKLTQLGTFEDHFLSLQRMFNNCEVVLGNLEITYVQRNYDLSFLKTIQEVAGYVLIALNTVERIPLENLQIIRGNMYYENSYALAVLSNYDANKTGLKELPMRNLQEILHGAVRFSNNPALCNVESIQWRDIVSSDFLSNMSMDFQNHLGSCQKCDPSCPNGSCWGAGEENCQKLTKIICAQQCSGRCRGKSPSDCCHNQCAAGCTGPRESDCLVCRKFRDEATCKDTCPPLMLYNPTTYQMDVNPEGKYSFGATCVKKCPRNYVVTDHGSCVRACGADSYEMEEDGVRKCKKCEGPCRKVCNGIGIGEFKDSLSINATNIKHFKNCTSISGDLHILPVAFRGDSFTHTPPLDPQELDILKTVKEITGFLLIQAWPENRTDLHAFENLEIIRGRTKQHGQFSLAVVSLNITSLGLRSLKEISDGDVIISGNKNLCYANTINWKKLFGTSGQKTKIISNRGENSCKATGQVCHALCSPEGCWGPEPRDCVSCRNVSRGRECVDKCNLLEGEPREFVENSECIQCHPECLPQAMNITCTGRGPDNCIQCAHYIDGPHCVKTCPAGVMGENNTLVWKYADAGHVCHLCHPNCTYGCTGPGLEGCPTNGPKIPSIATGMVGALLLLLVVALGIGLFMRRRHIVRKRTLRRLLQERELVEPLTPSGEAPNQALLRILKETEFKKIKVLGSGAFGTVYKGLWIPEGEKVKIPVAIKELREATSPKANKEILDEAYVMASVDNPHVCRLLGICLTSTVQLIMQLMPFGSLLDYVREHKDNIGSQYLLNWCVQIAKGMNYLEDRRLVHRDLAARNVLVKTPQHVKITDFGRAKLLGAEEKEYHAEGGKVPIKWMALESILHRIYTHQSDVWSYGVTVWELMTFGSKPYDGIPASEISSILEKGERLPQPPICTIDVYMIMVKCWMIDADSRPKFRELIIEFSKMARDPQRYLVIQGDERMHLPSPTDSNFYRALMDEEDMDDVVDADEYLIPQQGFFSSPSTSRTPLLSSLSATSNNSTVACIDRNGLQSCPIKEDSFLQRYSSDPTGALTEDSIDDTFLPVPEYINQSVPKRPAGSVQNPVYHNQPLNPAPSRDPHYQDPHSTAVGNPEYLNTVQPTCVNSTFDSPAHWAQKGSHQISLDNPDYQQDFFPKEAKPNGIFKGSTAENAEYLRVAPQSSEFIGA
Assay: HTRF pEGFR/total EGFR assay in H1975 C797S cells
Details: H1975 C797S cells (CRISPR), compound 3 hours, ratio pEGFR/total EGFR

C#Cc1cc(N2C(=O)NCC23CCCC3)nc2nc(Nc3ccc(OCCN(C)C)cc3)ncc12: 1 to 3 µM
C#Cc1cc(OC2CCC2)nc2nc(Nc3ccc(N4CCN(C)CC4)cc3)ncc12: > 3 µM

Data request: Item under review: C#Cc1cc(N2C(=O)NCC23CCCC3)nc2nc(Nc3ccc(N4CCN(C5COC5)CC4)cc3)ncc12 . Reported IC50?
Data returned: 1 to 3 µM

Data request: Which measured IC50 value corresponds to C#Cc1cc(N2C(=O)OC[C@@H]2C(C)C)nc2nc(Nc3ccc(N4CCN(C)CC4)cc3)ncc12 ?
Data returned: > 3 µM

Data request: // lookup IC50 for C#Cc1cc(NC(=O)N[C@H]2CCN(C(C)=O)C2)nc2nc(Nc3ccc(N4CCN(C)CC4)cc3)ncc12
Data returned: > 3 µM

Data request: Form field: reported IC50 of C#Cc1cc(OC)nc2nc(Nc3ccc(N4CCN(C)CC4)c(NCc4ccn(C)n4)c3)ncc12
Data returned: > 3 µM

Data request: Give the measured IC50 of C#Cc1cc(N2C(=O)N(C)CC23CCCC3)nc2nc(Nc3ccc(N(C)C(=O)CN(C)C)cc3)ncc12 .
Data returned: 1 to 3 µM

Data request: Request the reported IC50 associated with C#Cc1cc(N2C(=O)N(C)CC23CCCC3)nc2nc(Nc3ccc(N4CCOCC4)cc3)ncc12
Data returned: < 0.5 µM
